experiment-description: HT-logP o/w, high throughput assay based on artificial liquid membrane permeability
Assay type: physicochemical
measurement-parameters: octanol/water, read-out: HT LogP ohw
quantity-kind: logP

CCCC(=O)N[C@H](CC(=O)N[C@H](Cc1c[nH]c2ccccc12)C(=O)N[C@@H](CCCCN)CC(=O)NC1CCCC1)Cc1ccccc1    3
C[C@H]1OC(=O)C[C@H]1NC(=O)C[C@H](CCCCN)NC(=O)[C@@H](Cc1c[nH]c2ccccc12)NC(=O)C[C@@H](N)Cc1ccccc1    3.5
CCN(CC)C(=O)C[C@@H](NC(=O)C[C@H](CCCCN)NC(=O)[C@@H](Cc1c[nH]c2ccccc12)NC(=O)C[C@H](Cc1ccccc1)NC(C)=O)C(C)C    2.3
CCC(=O)N(C)[C@H](CC(=O)N[C@H](Cc1c[nH]c2ccccc12)C(=O)N[C@@H](CCCCN)CC(=O)NC1CCCC1)Cc1ccccc1    3.3
C[C@@H](O)[C@@H](CC(N)=O)NC(=O)C[C@H](CCCCN)NC(=O)[C@@H](Cc1c[nH]c2ccccc12)NC(=O)C[C@H](Cc1ccccc1)NC(=O)C1CCCCC1    3.3
CC(=O)N[C@H](CC(=O)N[C@H](Cc1cn(C)c2ccccc12)C(=O)N[C@@H](CCCCN)CC(=O)N[C@@H]1CC(=O)O[C@@H]1C)Cc1ccccc1    3.3
CCCC(=O)N[C@H](CC(=O)N[C@H](Cc1c[nH]c2ccccc12)C(=O)N[C@@H](CCCCN)CC(N)=O)Cc1ccccc1    2.8
CCCCN(C)C(=O)C[C@H](CCCCN)NC(=O)[C@@H](Cc1c[nH]c2ccccc12)NC(=O)C[C@H](Cc1ccccc1)NC(=O)CCC    3.7
C[C@H]1OC(=O)C[C@H]1NC(=O)C[C@H](CCCCN)NC(=O)[C@@H](Cc1cn(C)c2ccccc12)NC(=O)C[C@H](Cc1ccccc1)NC(=O)CCc1ccccc1    3.7
CC(C)[C@@H](CC(=O)N(C)CCc1ccccc1)NC(=O)C[C@H](CCCCN)NC(=O)[C@@H](Cc1c[nH]c2ccccc12)NC(=O)C[C@H](Cc1ccccc1)NC(=O)CCc1ccccc1    5.9
C[C@@H](O)[C@@H](CC(N)=O)NC(=O)C[C@H](CCCCN)NC(=O)[C@@H](Cc1c[nH]c2ccccc12)NC(=O)C[C@H](Cc1ccccc1)NC(=O)CCc1ccccc1    2.7
C[C@H]1OC(=O)C[C@H]1NC(=O)C[C@H](CCCCN)NC(=O)[C@@H](Cc1cn(C)c2ccccc12)NC(=O)C[C@H](Cc1ccccc1)NC(=O)C12CC3CC(CC(C3)C1)C2    2.9
C[C@H]1OC(=O)C[C@H]1NC(=O)C[C@H](CCCCN)NC(=O)[C@@H](Cc1c[nH]c2ccccc12)NC(=O)C[C@H](Cc1ccccc1)NC(=O)C12CC3CC(CC(C3)C1)C2    2.8

###

experiment-description: high throughput solubility (HT-Solubility)
Type: physicochemical
measurement-parameters: pH 6.8, pH 6.8; read-out: HT-Solubility pH 6.8
quantity-kind: solubility (µg/mL)

P = CCCCCCN(C)C(=O)C[C@H](CCCCN)NC(=O)[C@@H](Cc1c[nH]c2ccccc12)N(C)C(=O)C[C@H](Cc1ccccc1)NC(=O)CC [Compound 65]
Q = NCCCC[C@@H](CC(=O)NC1CCCC1)NC(=O)[C@@H](Cc1c[nH]c2ccccc12)NC(=O)C[C@H](Cc1ccccc1)NC(=O)CCc1ccccc1 [Compound 32]
Between the entries labeled P and Q , whose measured solubility is lower? // caller expects the label of the chosen entry
Q

a = CCCC(=O)N[C@H](CC(=O)N[C@H](Cc1c[nH]c2ccccc12)C(=O)N[C@@H](CCCCN)CC(=O)NC1CCCC1)Cc1ccccc1 [Compound 56]
b = C[C@H]1OC(=O)C[C@H]1NC(=O)C[C@H](CCCCN)NC(=O)[C@@H](Cc1c[nH]c2ccccc12)NC(=O)C[C@H](Cc1ccccc1)NC(=O)CCc1ccccc1 [Compound 10]
Between a and b , which one shows the larger solubility value? Mark your answer with the label of the selected entry.
a

a = CC(=O)N[C@H](CC(=O)N(C)[C@H](Cc1c[nH]c2ccccc12)C(=O)N[C@@H](CCCCN)CC(=O)N[C@@H]1CC(=O)O[C@@H]1C)Cc1ccccc1 [Compound 40]
b = CCCCCN(C)C(=O)C[C@H](CCCCN)NC(=O)[C@@H](Cc1c[nH]c2ccccc12)NC(=O)C[C@H](Cc1ccccc1)NC(=O)CC [Compound 48]
I'd appreciate it if you could identify which of a and b has the greater solubility. Choose, then provide that item's label.
b
(b: 129 µg/mL, a: 13.2 µg/mL)

Attribution: patent US20090305995A1
